tgt: M secta mEH (Manduca sexta)
Sequence (Q25489 whole entry): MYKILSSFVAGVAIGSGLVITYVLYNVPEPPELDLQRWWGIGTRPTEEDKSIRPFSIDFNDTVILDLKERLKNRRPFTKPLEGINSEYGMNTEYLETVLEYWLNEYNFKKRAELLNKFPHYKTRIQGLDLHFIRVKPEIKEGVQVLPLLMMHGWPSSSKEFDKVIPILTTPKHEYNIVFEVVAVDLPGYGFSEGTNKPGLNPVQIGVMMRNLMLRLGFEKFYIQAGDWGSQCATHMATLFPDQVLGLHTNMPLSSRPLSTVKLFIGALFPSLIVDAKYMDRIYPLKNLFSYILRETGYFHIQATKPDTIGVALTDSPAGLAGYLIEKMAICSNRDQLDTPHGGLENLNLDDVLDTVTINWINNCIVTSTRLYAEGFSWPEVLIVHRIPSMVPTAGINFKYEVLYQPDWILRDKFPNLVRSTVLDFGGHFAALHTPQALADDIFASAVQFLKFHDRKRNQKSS
assayOverview: Inhibition of recombinant insect microsomal EH
pIC50: −log10 of the molar value.
pIC50 for assorted compounds

{"smilesString": "CCCCCCCCCCNC(=O)NCC", "pIC50": 5.32}
{"smilesString": "CCCCCCCCCCNC(=O)NC", "pIC50": 4.55}
{"smilesString": "O=C(NC1CCCCCCC1)NC1CCCCC1", "pIC50": 5.41}

----------
Reported pIC50 for target or system Rat mEH (Rattus norvegicus), by entry.
pIC50: −log10 of the molar value.

{"compound": "O=C(NCC1CCCCC1)Nc1ccc2ccccc2c1 [Compound 169]", "pIC50": "< 3.30"}
{"compound": "CCCCCCCCCCNC(=O)NCC [Compound 28]", "pIC50": 5.08}
{"compound": "CNC(=O)Nc1ccc(Cl)c(Cl)c1 [Compound 32]", "pIC50": "< 3.30"}
{"compound": "O=C(NC1CCCCC1)NC1CCCCC1 [Compound 2, N,N′-dicyclohexylurea]", "pIC50": "< 3.30"}
{"compound": "CCCCCCCCCCCCNC(=O)NCCF [Compound 238]", "pIC50": 5.00}
{"compound": "CC1CCC(C(C)C)C(OC(=O)NC2CCCCC2)C1 (stereo not drawn) [Compound 225]", "pIC50": "< 3.30"}
{"compound": "[O-][S+](Cc1ccccc1)Cc1ccccc1 [Compound 161]", "pIC50": "< 3.30"}
{"compound": "O=C(NCc1ccc(Cl)cc1)NC1CCCCC1 [Compound 193]", "pIC50": "< 3.30"}
{"compound": "O=C(NC1CCCCCCC1)NC1CCCCC1 [Compound 58]", "pIC50": "< 3.30"}

Values from patent US20060035869A1
